Measured koff accompanies every entry in the list below.
- target.of.assay: T1, recombinant human domain 1-3His6 of the cation-independent mannose-6-phosphate receptor (human, UniProt P11717 41-467)
- T1 construct: Biotinylated (NHS-PEG4-biotin) for BLI; Glycosylated; also called hDom1-3His6; hCI-M6PRD1-D3
- method.description: BLI exp 1, dissoc pH 6

| binder | property.measured | meas.value |
| --- | --- | --- |
| anti-CI-M6PR VHH9 (VHH, His6-tagged; made in Pichia pastoris) VHH: QVQLQESGGGLVQAGGSLRLSCAASGTILSIKTMGWYRQAPGKEREWVATITSSSIPMYADSVKGRFTISRDDAKNTVYLQMNSLKPEDTGVYYCNAPWTDYWGQGTQVTVSS | koff | 0.00122 s⁻¹ |
| anti-CI-M6PR VHH7 (VHH, His6-tagged (Pichia pastoris)) VHH: QVQLQESGGGLVQPGGSLRLSCAASGIIFSDNRMDWYRQAPGKQREWVATLASYGWKTYADSVKGRFTISRDNTKNTVYLRMNSLKPEDTAVYYCKASSPVLNDIWGQGTQVTVSS | koff | 0.0321 s⁻¹ |
| anti-CI-M6PR VHH4 (VHH, His6-tagged; made in Pichia pastoris) VHH: QVQLQESGGGLVQAGGSLRLSCAASGRTFSNYVMGWFRQAPGKEREFVGSISQGGKMTYYPDSVKGRFTISRDNAKNTMYLQMDGLKPEDTAVYYCAVSRGYPMVRVSEVDYWGQGTQVTVSS | koff | 0.00101 s⁻¹ |

// query Can you share its koff? I mean this binder: anti-CI-M6PR VHH5 (VHH, His6-tagged; made in Pichia pastoris, later also in E. coli WK6) VHH: QVQLQESGGGLVQAGGSLKLSCAAAGRTFSRLAMGWFRQAPGKEREFVAAISENGDSIHYSDSVKGRFAVSRDNAKNTVYLQMNSLKPEDTAIYYCAADRAAYYCSGSGCYPSRAPAAASYDYWGQGTQVTVSS
// result 1.52e-05 s⁻¹

// query Look up koff: anti-CI-M6PR VHH1 (VHH, His6-tagged; made in Pichia pastoris, later also in E. coli WK6) VHH: QVQLQESGGGLVQPGGSLRLSCVASGFTFDRYWMNWLRQIPGKEIEWVSTINTGGTGTYYDDSVKGRFSISRDDAKNTLYLTMNSLKTEDTAVYYCARGATYYRGNSAIRGQGTQVTVSS
// result ~0.0165 s⁻¹

// query Which koff is reported for this binder? anti-CI-M6PR VHH3 (VHH, His6-tagged; made in Pichia pastoris) VHH: QVQLQESGGGLVQPGGSLRLSCAAFGLNFKNFDMIWFRQAPGEERDIVAAISSSSSTIWYEDSVKGRFTISRDNAKNTVYLQMNSLKPEDTAVYYCAAALTSWRRPDYWGQGTQVTVSS
// result 0.000851 s⁻¹

// query Reported koff for anti-CI-M6PR VHH8 (VHH, His6-tagged (Pichia pastoris)) VHH: QVQLQESGGGLVQAGGSLRLSCEASGRTFNTYNWGWFRQAPGKEREFVAAIRWSSSKTSYADSVKGRFTISRDNAKNTIYLQMNSLKPEDTAVYYCAASIVDFTTNPSHFGSWGQGTQVTVSS : what is it?
// result 0.00293 s⁻¹

// query Can you share its koff? I mean this binder: anti-CI-M6PR VHH2 (VHH, His6-tagged; made in Pichia pastoris) VHH: QVQLQESGGGLVQPGGSLRLSCVFSGRTFMSYDVGWFRQAPGKERELLSSITSSSSSPYYAESVKGRFAVSRDGAKKTVYLRMNSLEPEDTAVYYCAARENWRNDWQYWGQTQVTVSS
// result 0.00513 s⁻¹
